# System: SF-539 CNS
# RUN DESCRIPTION: NCI-60 one-dose screen, 48 h
# CONDITION INFO: 10 µM unless noted
About 83,000 compounds went through this panel and 20% of them were active in at least one assay; those are over-represented in the sample as a whole. Activity calls are given as the source filed them. The calls were made as follows: active = growth percent below 10; inactive = the rest.
The reply should be one of these categories: active, inactive

{"COMPOUND": "CC1CCN(S(=O)(=O)c2ncsc2-c2ccccc2)CC1", "CLASS": "inactive"}
{"COMPOUND": "CC1(C)CC[C@]2(C(=O)O)CC[C@]3(C)C(=CCC4[C@@]5(C)C[C@@H](O)[C@@H]6OC(c7cccc([N+](=O)[O-])c7)OC[C@@]6(C)C5CC[C@]43C)C2C1 (stereo not given in full)", "CLASS": "inactive"}
{"COMPOUND": "CCN(CC)CCN1C(=O)c2c(c3c4cc(Br)ccc4[nH]c3c3ccc4ccccc4c23)C1=O", "CLASS": "active"}
{"COMPOUND": "CCNCCCn1c2c(c3cc(OC)c(OC)cc3c1=O)C(=O)c1cc(OC)cnc1-2", "CLASS": "active"}

Please examine the following record next.
Give the logged outcome of this assay for the following compound: "CN1CCN(Cc2ccc(NC(=O)c3cncc(C#Cc4[nH]nc5ncncc45)c3)cc2C(F)(F)F)CC1"
inactive

###

# Tested on: HCC-2998 colon
# RUN DESCRIPTION: NCI-60 one-dose screen, 48 h (100 = growth as untreated, 0 = no growth, -100 = all killed)
# CONDITION INFO: 10 µM unless noted
This is part of a sample that, as a whole, favours compounds with a hit. Of some 83,000 tested, about 20% had one in any assay.
# Lookup of reported growth keyed by entry
Return type: number; implicit unit %.

{"COMPOUND": "CCOC(=O)C1=C(C)N=C2Sc3ccccc3N2C1c1ccccc1 (centres undefined)", "growth, %": 97.1}

Shift focus to the following entry.
Request the reported growth associated with "O=C(/C=C/c1cccc(O)c1)c1ccc(O)cc1"
110

###

# Test system: NCI-H522 lung
# RUN DESCRIPTION: NCI-60 one-dose screen, 48 h (100 = growth as untreated, 0 = no growth, -100 = all killed)
# CONDITION INFO: 10 µM unless noted
Compounds without any hit were thinned out: in the full panel of roughly 83,000, 20% have a hit.
Mark 1 for reported growth of 70% or greater; mark 0 for anything smaller.

The following compounds have reported results that may help.
{"SMILES STRUCTURE": "C=C(C)[C@@H]1CC[C@]2(COS(C)(=O)=O)CC[C@]3(C)[C@H](CC[C@@H]4[C@@]5(C)CCCNC(C)(C)[C@@H]5CC[C@]43C)[C@@H]12", "SYSTEM": "NCI-H522 lung", "CLASS": 1}
{"SMILES STRUCTURE": "Cc1cnc2nc(NN)[nH]n12", "SYSTEM": "NCI-H522 lung", "CLASS": 1}
{"SMILES STRUCTURE": "Cc1ccc(-c2cc(-c3cccc4ccccc34)n3c(n2)nc2ccccc23)cc1", "SYSTEM": "NCI-H522 lung", "CLASS": 1}

Check this compound for growth at or above 70%: "COc1ccc(NS(=O)(=O)c2ccc(-c3cnc(C4CC4)o3)cc2)cc1Cl"
0

For this compound, is measured growth 70% or higher? "O=C1NC(=O)c2c1c1c3ccccc3ccc1c1[nH]c3ccccc3c21"
0
